ASSAY: NCI Yeast Anticancer Drug Screen. Data for the rad50 strain (AID 155);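 further: 0% = growth of vehicle-only cultures of the same strain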
COND: S. cerevisiae rad50 strain growth inhibition; at 5.0 µM (retest, dose inferred, filed as 0.5); stronger effect = higher value
Compounds without any hit were thinned out: in the full panel of roughly 79,000, 15% have a hit. Activity calls are given as the source filed them. No stated cut-off is given here; in the data, active means growth inhibition above about 70%; inactive means the rest.
MEASURED_METRIC: growth inhibition

[in] Could you tell me which growth inhibition is on file for `C/C(=N\NC(=S)N1CCCCCC1)c1cccc2cccnc12` ?
[out] -3% (inactive)

###

ASSAY: NCI Yeast Anticancer Drug Screen. Data for the rad50 strain (AID 155);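 further: 0% = growth of vehicle-only cultures of the same strain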
COND: S. cerevisiae rad50 strain growth inhibition; at 5.0 µM (retest, dose inferred, filed as 0.5); stronger effect = higher value
This is part of a sample that, as a whole, favours compounds with a hit. Of some 79,000 tested, about 15% had one in any assay.
MEASURED_METRIC: growth inhibition (%)
All answers are understood in %, so give the number only.

[in] Could you tell me which growth inhibition is on file for `Cc1ccccc1NC(=O)c1cc2cc(N=Nc3ccccc3C(=O)O)ccc2oc1=O` ?
[out] 7

[in] Could you tell me which growth inhibition is on file for COC(=O)c1ccc2c(c1)CC1(C2)Cc2ccccc2C1=O (configuration not stated) ?
[out] 14

[in] Could you tell me which growth inhibition is on file for `NCCCNCc1c2ccccc2c(CNCCCN)c2ccccc12` ?
[out] 6

Others:
[in] Could you tell me which growth inhibition is on file for CCOC(=O)c1ccccc1NC(OCC)C(=O)c1ccccc1 (configuration not stated) (tested in a mixture with another compound) ?
[out] -5

[in] Could you tell me which growth inhibition is on file for `O=C(O)CSC(=S)N1CCCC1` ?
[out] -4

[in] Could you tell me which growth inhibition is on file for CN1C(OCc2ccccc2)c2c(ccc3c2OCO3)C2C=Cc3cc4c(cc3C21)OCO4 (configuration not stated) ?
[out] 47

[in] Could you tell me which growth inhibition is on file for `Fc1ccc(CSC(=S)Nc2ccc(F)cc2)cc1` ?
[out] 5

[in] Could you tell me which growth inhibition is on file for `Cc1ccc(Oc2ccc(C(=O)C(CN(C)C)CN(C)C)cc2)cc1` ?
[out] 93

[in] Could you tell me which growth inhibition is on file for COc1ccc(C2SC(N)=Nc3c2c(C)nn3C(=O)c2ccccc2O)cc1OC (configuration not stated) ?
[out] -9

[in] Could you tell me which growth inhibition is on file for `Cc1cc(N)c(C)c2c1[nH]c1ccc(Br)cc12` ?
[out] 1

[in] Could you tell me which growth inhibition is on file for `COc1ccc2c(c1)CCCN2CCCCCCCCCCN1CCCCC1` ?
[out] 13

[in] Could you tell me which growth inhibition is on file for CCCCN(CCCC)CC(O)c1cccc2c(Cl)cccc12 (configuration not stated) ?
[out] 15

[in] Could you tell me which growth inhibition is on file for O=C(OC1CC2CC1C1CC=CC21)c1ccccc1 (configuration not stated) ?
[out] -3

[in] Could you tell me which growth inhibition is on file for `Clc1ccc2nc3c(c(N4CCCCC4)c2c1)CCCC3` ?
[out] 7

[in] Could you tell me which growth inhibition is on file for CC(OC(=O)Nc1cccc(Cl)c1)c1ccccc1 (configuration not stated) ?
[out] 18

[in] Could you tell me which growth inhibition is on file for CC1CCC(C)(C)c2cc([N+](=O)[O-])cc([N+](=O)[O-])c21 (configuration not stated) ?
[out] -1

[in] Could you tell me which growth inhibition is on file for CN1CCCCC1c1cc2c3ccccc3ccn2c1-c1ccccc1 (configuration not stated) ?
[out] 71

[in] Could you tell me which growth inhibition is on file for N#CC(C(=O)C(=O)Nc1cccc(C(F)(F)F)c1)c1ccccc1 (configuration not stated) ?
[out] -23

[in] Could you tell me which growth inhibition is on file for `Cc1c[nH]c2c(O)cc3c(c12)[C@H](CCl)CN3C(=O)c1cc2cc(NC(=O)Nc3ccc4[nH]c(C(=O)N5C[C@@H](CCl)c6c5cc(O)c5[nH]cc(C)c65)cc4c3)ccc2[nH]1` ?
[out] 38

[in] Could you tell me which growth inhibition is on file for `CCOCCNc1ncnc2c1cnn2C` ?
[out] 2

[in] Could you tell me which growth inhibition is on file for `O=C(NCCCl)Nc1c2ccccc2nc2ccccc12` ?
[out] 15

[in] Could you tell me which growth inhibition is on file for `Cc1ccc(Cc2n[nH]c(=O)n2N2C(=O)c3ccccc3C2=O)cc1` ?
[out] 18

[in] Could you tell me which growth inhibition is on file for `Cc1ccc(O)cc1CCCCO` ?
[out] 2

[in] Could you tell me which growth inhibition is on file for `CCCCCCCCCCCCCCCc1ncc(C)[nH]1` ?
[out] 69
